B1: FBXO39 (parent)
chain: RVFKARIYTNRYETNEEDKTLQEI

Variants of: B1
assay_summary: protein stability index of a GFP-peptide fusion (GPS, HEK-293T) (PSI 1-6); higher = more stable;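 note: lentivirally expressed fusions sorted by FACS into six bins by GFP to DsRed ratio, PSI derived from sequencing read proportions per bin multiplied by bin number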
condition_label: c terminus: a fixed tail appended
Binary classification by protein stability index, with 3 as an inclusive lower bound for yes; all other cases are no.

Q22C yes

// query Is protein stability index at least 3? Consider N10D
// result no

// query Reported protein stability index at or above 3? T9I
// result no

// query Kindly determine if protein stability index recorded for R6N is above or exactly 3.
// result yes

// query Does L21P have a reported protein stability index of at least 3?
// result yes

// query Please indicate if the recorded protein stability index for E13L meets or exceeds 3.
// result yes
